Molecular target: WT (SEQ ID NO.1) AtPPO1 (Arabidopsis thaliana)
Construct: made in house; host or cells: E. coli BL21 (DE3) hemG, crude extract
Sequence (P55826 35-537): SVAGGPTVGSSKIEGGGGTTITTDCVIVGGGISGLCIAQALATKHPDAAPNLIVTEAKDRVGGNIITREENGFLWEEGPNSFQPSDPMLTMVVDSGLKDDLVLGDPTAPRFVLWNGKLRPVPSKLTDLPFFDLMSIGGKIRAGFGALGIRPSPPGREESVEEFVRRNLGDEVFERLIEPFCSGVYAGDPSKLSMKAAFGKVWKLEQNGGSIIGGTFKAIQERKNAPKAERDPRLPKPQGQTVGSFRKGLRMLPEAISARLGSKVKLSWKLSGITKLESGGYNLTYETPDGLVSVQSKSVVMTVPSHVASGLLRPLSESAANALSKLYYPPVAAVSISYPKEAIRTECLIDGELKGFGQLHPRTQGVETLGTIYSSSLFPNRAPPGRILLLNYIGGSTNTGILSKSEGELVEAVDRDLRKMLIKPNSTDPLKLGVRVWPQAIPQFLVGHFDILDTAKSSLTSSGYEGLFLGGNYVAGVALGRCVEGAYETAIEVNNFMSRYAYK
Assay: fluorescent Protoporphyrinogen Oxidase assay, crude extract
Assay type: biochemical
Conditions: read-out: percentage inhibition
Some compounds, each annotated with its measured inhibition at 10 ppm.
Only the number, expressed in %, is required.

C#CCN1C(=O)C(F)(F)Oc2cc(F)c(-n3c(=O)n(C)c(=S)n(C)c3=O)cc21 [Herbicide B, trifludimoxazin]
96
CC(C)N(C)S(=O)(=O)NC(=O)c1cc(-n2c(=O)cc(C(F)(F)F)n(C)c2=O)c(F)cc1Cl [Herbicide E, saflufenacil]
100
CCOC(=O)[C@]1(C)CC(c2cc(-n3c(=O)n(C)c(=S)n(C)c3=O)c(F)cc2Cl)=NO1 [Herbicide D]
96
CCOC(=O)C1(C)CC(c2cc(-n3c(=O)cc(C(F)(F)F)n(C)c3=O)c(F)cc2Cl)=NO1 (centres unmarked) [Herbicide C]
98

Next, consider the following compound.
Q: # lookup: inhibition at 10 ppm of CCOC(=O)COc1ncccc1Oc1cc(-n2c(=O)cc(C(F)(F)F)n(C)c2=O)c(F)cc1Cl [Herbicide A, epyrifenacil]
Ans: 97
